Target: GSPT1 (Homo sapiens, UniProt P15170+Q96SW2)
Construct: endogenously expressing GSPT1 with HiBiT fusion tag via CRISPR; endogenous in cells; host or cells: 293T.114 (HiBiT-GSPT1), CRISPR knock-in, generated in house
Sequence (P15170 whole entry, the tested form may be a part): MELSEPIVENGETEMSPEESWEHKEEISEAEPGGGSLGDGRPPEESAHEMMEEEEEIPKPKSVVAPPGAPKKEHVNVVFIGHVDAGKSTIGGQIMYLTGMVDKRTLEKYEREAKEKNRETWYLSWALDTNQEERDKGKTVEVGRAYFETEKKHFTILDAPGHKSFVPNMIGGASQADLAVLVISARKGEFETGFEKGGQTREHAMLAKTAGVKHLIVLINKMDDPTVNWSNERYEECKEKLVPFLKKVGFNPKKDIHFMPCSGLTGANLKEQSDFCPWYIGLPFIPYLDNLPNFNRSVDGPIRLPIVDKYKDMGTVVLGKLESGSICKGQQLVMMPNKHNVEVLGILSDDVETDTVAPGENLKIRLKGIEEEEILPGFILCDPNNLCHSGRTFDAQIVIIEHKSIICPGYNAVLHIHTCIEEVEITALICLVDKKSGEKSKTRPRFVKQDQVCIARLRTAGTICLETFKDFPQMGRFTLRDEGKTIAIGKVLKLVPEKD
Sequence (Q96SW2 whole entry, the tested form may be a part): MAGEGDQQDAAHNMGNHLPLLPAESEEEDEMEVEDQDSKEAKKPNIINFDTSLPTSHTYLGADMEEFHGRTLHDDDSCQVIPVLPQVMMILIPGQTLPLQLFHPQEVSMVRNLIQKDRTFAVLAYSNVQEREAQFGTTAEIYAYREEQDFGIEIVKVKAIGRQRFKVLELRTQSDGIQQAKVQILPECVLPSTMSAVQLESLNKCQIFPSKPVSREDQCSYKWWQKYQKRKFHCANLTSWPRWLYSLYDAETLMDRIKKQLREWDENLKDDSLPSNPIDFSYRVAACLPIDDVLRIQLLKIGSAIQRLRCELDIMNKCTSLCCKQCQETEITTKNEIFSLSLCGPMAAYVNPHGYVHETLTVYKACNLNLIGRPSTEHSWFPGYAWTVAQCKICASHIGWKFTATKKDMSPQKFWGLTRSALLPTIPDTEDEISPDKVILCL
Sequence (Q16531 whole entry partner, the tested form may be a part): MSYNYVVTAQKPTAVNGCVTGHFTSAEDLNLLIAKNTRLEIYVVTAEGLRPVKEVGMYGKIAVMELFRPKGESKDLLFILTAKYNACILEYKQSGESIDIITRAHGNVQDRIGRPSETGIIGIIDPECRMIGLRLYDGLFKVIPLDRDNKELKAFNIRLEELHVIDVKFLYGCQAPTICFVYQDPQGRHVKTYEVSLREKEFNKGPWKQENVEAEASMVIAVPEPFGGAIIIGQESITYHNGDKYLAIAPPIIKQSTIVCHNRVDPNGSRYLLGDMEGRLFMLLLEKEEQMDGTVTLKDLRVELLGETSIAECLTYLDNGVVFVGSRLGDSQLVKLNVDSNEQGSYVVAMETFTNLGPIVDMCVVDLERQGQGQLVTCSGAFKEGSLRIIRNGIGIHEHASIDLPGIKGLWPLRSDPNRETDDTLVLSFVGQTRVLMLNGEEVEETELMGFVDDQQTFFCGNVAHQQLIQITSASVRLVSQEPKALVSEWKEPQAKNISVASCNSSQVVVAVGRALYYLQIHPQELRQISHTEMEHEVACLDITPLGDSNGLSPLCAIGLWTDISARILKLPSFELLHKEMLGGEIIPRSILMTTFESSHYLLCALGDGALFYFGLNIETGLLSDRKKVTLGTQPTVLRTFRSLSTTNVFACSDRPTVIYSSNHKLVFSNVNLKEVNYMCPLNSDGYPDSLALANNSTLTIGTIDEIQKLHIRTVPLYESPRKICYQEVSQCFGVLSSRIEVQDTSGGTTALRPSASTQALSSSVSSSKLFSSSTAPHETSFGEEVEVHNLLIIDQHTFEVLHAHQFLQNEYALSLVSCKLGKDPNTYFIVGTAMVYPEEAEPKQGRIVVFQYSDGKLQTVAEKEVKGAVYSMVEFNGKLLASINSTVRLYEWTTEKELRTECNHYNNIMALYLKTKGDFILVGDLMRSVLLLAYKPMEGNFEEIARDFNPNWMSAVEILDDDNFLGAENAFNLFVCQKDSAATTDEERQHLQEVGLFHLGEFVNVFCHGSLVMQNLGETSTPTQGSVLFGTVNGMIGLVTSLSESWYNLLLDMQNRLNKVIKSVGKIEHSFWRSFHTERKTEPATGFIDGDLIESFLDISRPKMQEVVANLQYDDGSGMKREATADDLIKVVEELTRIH
Assay: GSPT1 degradation assay, HiBiT method (Nano-Glo HiBiT Lytic Assay)
Assay type: cell-based
Details: 293T.114 (HiBiT-GSPT1) cells, 6 hours
RESULT_TYPE: Emax

Examples from the recorded data:
COMPOUND | Emax
CN1CCN(c2ccc3c4c(ccnc24)N(C2CCC(=O)NC2=O)C3=O)CC1 (stereo not drawn) | 60 to 95%
COc1ccccc1C(C)NC(=O)c1ccc2c3c(cccc13)N(C1CCC(=O)NC1=O)C2=O (stereo not drawn) | 60 to 95%

Now let's try a different one.
Please look up its Emax: CN1CCC(c2ccc3c4c(cccc24)N(C2CCC(=O)NC2=O)C3=O)C1 (stereo not drawn)
> 95%

From: patent US20230339902A1
